Tested on: SNB-75 CNS
Protocol Details: NCI tumour cell line growth inhibition, 48 h
Experimental Endpoint: TGI

>>> df
                                    molecule  subject_of_test  experimental_endpoint  observed_result
 0  COc1ccc(N(C)C(=O)N(C)c2ccc([N+](=O)[O-])cc2)cc1       SNB-75 CNS                    TGI         > 100 µM
 1              N=c1oc2ccc3ccccc3c2cc1C(N)=O       SNB-75 CNS                    TGI         > 100 µM
 2  CC1CC#CCOC(=O)CCCC1=O (stereo not given)       SNB-75 CNS                    TGI         > 100 µM
 3                     c1ccc(CCNCc2ccco2)nc1       SNB-75 CNS                    TGI         > 100 µM
 4  O=C(/C(=C\C(=O)c1cccs1)c1ccsc1)c1ccc(Br)cc1       SNB-75 CNS                    TGI         > 100 µM
 5  O=C1C=C(NCCNC(=S)Nc2ccccc2)c2nccc3c2c1nc1ccccc13       SNB-75 CNS                    TGI         > 100 µM
 6  COC(=O)C1C(O)CC(c2ccccn2)N(Cc2ccccc2)C1c1ccccn1 (stereo not given)       SNB-75 CNS                    TGI         > 100 µM
 7  CCOC(=O)C1(C(=O)OCC)[C@H](c2ccccc2)C2=NO[C@@H]3CCC[C@H]1[C@H]23       SNB-75 CNS                    TGI         > 100 µM
 8  Cc1ccc(C2=NOC(=O)[C@@H]3CCCC[C@@H]23)cc1       SNB-75 CNS                    TGI         > 100 µM
 9  C=CCN(/C=C1/C(=O)O[C@H](COC)[C@@]2(C)C1=C(O)C(=O)C1=C2[C@H](OC(C)=O)C[C@]2(C)C(=O)CC[C@@H]12)CC=C       SNB-75 CNS                    TGI         0.816 µM
10  O=C1c2ccc([N+](=O)[O-])cc2-c2c1c1ccccc1c(=O)n2CCCNCCCNCCCn1c2c(c3ccc([N+](=O)[O-])cc3c1=O)C(=O)c1ccccc1-2       SNB-75 CNS                    TGI          5.54 µM
11         C/C(=N\NC(=S)N1CCCCC1)c1cccc(C)n1       SNB-75 CNS                    TGI          6.19 µM
12     CC[N+](C)(CC)CCC(O)(c1ccccc1)c1ccccc1       SNB-75 CNS                    TGI         > 100 µM
13  COC(=O)[C@H]1[C@@H](C(C)C)O[C@@H](C(C)C)O[C@H]1C(F)(F)F       SNB-75 CNS                    TGI         > 100 µM
14                           CCCCCCCCCCCCCCN       SNB-75 CNS                    TGI         > 100 µM
